- System: UACC-257
- EXPERIMENT: NCI tumour cell line growth inhibition, 48 h
The source made the active and inactive calls. No stated cut-off is given here; in the data, active = GI50 up to about 1.1 µM and inactive = higher.
Items are presented alongside their recorded GI50.

{"columns": ["COMPOUND", "SUBJECT_OF_TEST", "GI50"],
 "data": [
  ["N#C[BH2-][n+]1cn(C2CC(O)C(COP(=O)(O)OC3CC(n4cnc5c(N)ncnc54)OC3CO)O2)c2nc(N)[nH]c(=O)c21 (centres undefined)", "UACC-257", "> 100 µM (inactive)"],
  ["N[C@@H](CCC(=O)NCP(=O)(O)O)C(=O)O", "UACC-257", "> 100 µM (inactive)"],
  ["COc1ccc(SS(=O)(=O)c2ccc(OC)cc2)cc1", "UACC-257", "22.9 µM (inactive)"],
  ["C[C@H]1[C@H](C)CC[C@]2(C(=O)OC3OC(CO)C(O)C(O)C3O)CC[C@]3(C)C(=CC[C@@H]4[C@@]5(C)C[C@@H](O)[C@@H]6OC(=O)c7cc(O)c(O)c(O)c7-c7c(cc(O)c(O)c7O)C(=O)OC[C@@]6(CO)[C@@H]5CC[C@]43C)[C@H]12 (some centres undefined)", "UACC-257", "> 100 µM (inactive)"]
]}

---

- System: SK-MEL-28
- EXPERIMENT: NCI tumour cell line growth inhibition, 48 h
Activity calls are given as the source filed them. Rule as the data show it: active = GI50 up to about 1.1 µM and inactive = higher.
Reported GI50 values follow for various compounds

{"columns": ["COMPOUND", "GI50"],
 "data": [
  ["O=c1c2cc(Cl)ccc2[nH]c2cc(O)cc(O)c12", "> 10 µM (inactive)"],
  ["NS(=O)(=O)c1cc(S(N)(=O)=O)c(NC(=O)Nc2ccc(Cl)c(Cl)c2)c(Cl)c1Cl", "> 100 µM (inactive)"],
  ["O=c1[nH]c(-c2ccccc2)nc2cc(Cl)ccc12", "> 100 µM (inactive)"],
  ["CCN(CC)CCCNc1ccc([N+](=O)[O-])c2nc3ccc(OC)cc3c(N)c12", "> 10 µM (inactive)"],
  ["C=C1C(=O)OC2/C=C(/C)C(OC(C)=O)C/C=C(\\C)C(OC(=O)C3(C)OC3C)C(O)C12 (stereo not given)", "71 µM (inactive)"],
  ["CCOP(=O)(C=C=C1CCC2[C@@H]3CCc4cc(OC)ccc4C3CC[C@]12C)OCC (stereo not given in full)", "10.6 µM (inactive)"],
  ["COc1ccc2c3c1OC1C4(CCC5C(C2)N(CC2CC2)CCC351)OCCO4 (stereo not given)", "> 100 µM (inactive)"],
  ["N=C(N)SCc1ccc2c(c1)S(=O)(=O)c1ccccc1O2", "16.4 µM (inactive)"],
  ["COC(=O)[C@]12CSCN1C(=O)C(C(C)=O)=NN2C(=O)[C@](OC)(c1ccccc1)C(F)(F)F", "> 100 µM (inactive)"],
  ["CC(C)=CC(=O)Cc1nc2ccc([N+](=O)[O-])cc2[nH]c1=O", "> 100 µM (inactive)"],
  ["O=C1C(=C(C(=O)c2ccccc2)C(=O)c2ccccc2)OC(c2ccccc2)=C1C(=O)c1ccccc1", "13.9 µM (inactive)"],
  ["Cc1ccc(NC(=O)/C(=N/NC(=O)C[N+](C)(C)C)c2nc3ccccc3nc2O)cc1", "> 100 µM (inactive)"],
  ["c1cc(CN2CCNCCNCCNCC2)cc(CN2CCNCCNCCNCC2)c1", "> 100 µM (inactive)"],
  ["CCOc1ccc2[nH]c3c(C)c4cc[n+](C)cc4c(C)c3c2c1", "2.24 µM (inactive)"],
  ["CC(=O)O[C@@H]1C=C(C)[C@H](CBr)O[C@@]2(C)CC[C@H](Br)C(C)(C)[C@H]12", "> 100 µM (inactive)"],
  ["COc1ccc2c(c1)OC1c3ccccc3OCC21 (stereo not given)", "> 100 µM (inactive)"],
  ["O=C1SC(c2ccc(Cl)cc2)(c2ccc(Cl)cc2)c2ccccc21", "> 100 µM (inactive)"],
  ["CC(=O)O[C@H]1/C(=C/c2ccncc2)C[C@H]2[C@@H]3CC=C4C[C@@H](N5CCCC5)CC[C@]4(C)[C@H]3CC[C@]12C", "12.7 µM (inactive)"],
  ["CCOC(=O)N1C2C=C(C)C(ON2C(=O)c2ccccc2)C2C(C)C(=O)N21 (stereo not given)", "> 100 µM (inactive)"],
  ["COC(=O)c1ccc(Cc2cc(Cc3ccc(C(=O)OC)cc3)cc(Cc3ccc(C(=O)OC)cc3)c2)cc1", "> 25 µM (inactive)"]
]}

---

- Test system: SF-268
- EXPERIMENT: NCI tumour cell line growth inhibition, 48 h
Active and inactive are the calls of the source. No stated cut-off is given here; in the data, active = GI50 up to about 1.1 µM and inactive = higher.
QUANTITY: GI50

{"columns": ["COMPOUND", "QUANTITY", "ASSAY_VALUE"],
 "data": [
  ["CCOC(=O)C1=C(C)N(C)C23OC4(C(=O)OC)CC2c2ccccc2C1N3C4=O (stereo unspecified)", "GI50", "> 100 µM (inactive)"],
  ["CCOC(=O)c1cccc(NC(=O)CCl)c1", "GI50", "2.11 µM (inactive)"],
  ["C/C(=N\\Nc1nc2ccccc2n1C)c1ccc2ccccc2n1", "GI50", "2.87 µM (inactive)"],
  ["O=C(Nc1ccccc1)C(=O)C(C(=O)c1ccccc1)C(c1ccccc1)c1ccccc1 (stereo unspecified)", "GI50", "> 10 µM (inactive)"],
  ["O=C1OC(c2ccccc2)N/C1=C\\c1ccc2c(c1)OCO2 (stereo unspecified)", "GI50", "> 100 µM (inactive)"],
  ["COc1ccc2c(c1)-c1nc(=O)n(CCCN(C)C)c3ccc([N+](=O)[O-])c(c13)N2", "GI50", "0.789 µM (active)"],
  ["O=C(O)c1cc(Cl)cc(NC(=O)C(Cl)Cl)c1Cl", "GI50", "> 100 µM (inactive)"],
  ["O=C(/C=C/c1ccc(Cl)cc1)Oc1ccc(/C=C2\\CCCCC2=O)cc1", "GI50", "69.7 µM (inactive)"],
  ["CCCCCCCCCCCCCCCCCC(=O)OCC(COC(=O)CCCN)OC(=O)CCCN (stereo unspecified)", "GI50", "23.1 µM (inactive)"],
  ["O=C(O)Cc1cccc2c1OC(c1ccccc1)C(C(=O)c1ccccc1)C2=O (stereo unspecified)", "GI50", "44 µM (inactive)"],
  ["O=C1CCC[C@@H]2NC[C@@H](c3ccc4c(c3)OCO4)[C@H]12", "GI50", "> 25 µM (inactive)"],
  ["N/C(CSCCSC/C(N)=N/O)=N\\O", "GI50", "> 100 µM (inactive)"],
  ["c1cc(C2N3CCCN2CC3)ccn1 (stereo unspecified)", "GI50", "8.38 µM (inactive)"],
  ["CC1=CC(=O)[C@@H](O)[C@]2(C)[C@H]3[C@@]4(O)OC[C@]35[C@H]([C@@H](C)[C@H]4O)[C@@H](OC(=O)C(C)(C)CO)C(=O)O[C@@H]5C[C@@H]12", "GI50", "< 0.0379 µM (active)"],
  ["CC1C2C=CC1C(c1c3ccc(=O)c(O)c-3oc3c(O)c(O)ccc13)C2C(=O)O (stereo unspecified)", "GI50", "> 100 µM (inactive)"],
  ["O=C(NC1CCCC1=O)c1ccccc1 (stereo unspecified)", "GI50", "> 100 µM (inactive)"]
]}

---

- System: PC-3
- EXPERIMENT: NCI tumour cell line growth inhibition, 48 h
Calls of active or inactive are those of the source. Rule as the data show it: active = GI50 up to about 1.1 µM and inactive = higher.
// reported GI50 for each item listed

{"columns": ["MOLECULE", "GI50"],
 "data": [
  ["CCOC(=O)c1c(Sc2ccc([N+](=O)[O-])cc2[N+](=O)[O-])nc2c3ccccc3ccn12", "> 100 µM (inactive)"],
  ["CN(C)CCNC(=O)c1ccc(NCCCN(C)CCCNc2ccc(C(=O)NCCN(C)C)c3nc4ccccc4c(O)c23)c2c(O)c3ccccc3nc12", "< 0.01 µM (active)"],
  ["O=C(CC(O)(C(F)(F)F)C(F)(F)F)c1cc(CC(=O)C(O)(C(F)(F)F)C(F)(F)F)cc(CC(=O)C(O)(C(F)(F)F)C(F)(F)F)c1", "0.78 µM (active)"],
  ["COc1ccc(N2C(=O)C3c4[nH]c5ccccc5c4C4c5ccccc5CC4C3C2=O)cc1 (centres undefined)", "> 100 µM (inactive)"]
]}

---

Entries annotated with measured GI50
- Tested on: HCC 2998
- EXPERIMENT: NCI tumour cell line growth inhibition, 48 h
Activity calls are given as the source filed them. Cut-off read from the data, not from the text of the source: active = GI50 up to about 1.1 µM and inactive = higher.

{"columns": ["COMPOUND", "GI50"],
 "data": [
  ["CC[C@@H]1C[C@@H]2CN3CCc4c([nH]c5ccc(OC)cc45)C(COC(=O)c4ccc(OC)c(OC)c4)(C2)C13", "20.3 µM (inactive)"],
  ["CCOP(=Nc1ccc(N(C)C)cc1)(OCC)OCC", "> 100 µM (inactive)"],
  ["O=P(CCOc1ccccc1OCCP(=O)(c1ccccc1)c1ccc2c(c1)OCCOCCOCCOCCO2)(c1ccccc1)c1ccc2c(c1)OCCOCCOCCOCCO2 (centres undefined)", "> 100 µM (inactive)"],
  ["C=CC1=C(C)/C(=C/C2=NC(=C\\c3[nH]c(CC4NC(=O)C(C)/C4=C\\C)c(C)c3CCC(=O)O)/C(CC(=O)O)=C2C)NC1=O (centres undefined)", "> 100 µM (inactive)"]
]}
